System: MacMCMΔWHD E391Q (Mancarchaeum acidophilum), PDB:8Q67_1
test: fluorescence anisotropy
settings: Anisotropy: 250 mM potassium glutamate, 20 mM Tris pH 8.0, 1 nM forked DNA, with 4 mM nucleotide and 10 mM MgCl2 where present; temperature not stated (EMSA …)
result-type: Kd (µM)
Give just the numeric value; µM need not be written.

Incoming: Entry GGGACGCGTCGGCCTGGCACGTCGGCCGCTGCGGCCAGGCACCCGATGGCGTTTGTTTGTTTGTTTGTTTGTTT / TTTGTTTGTTTGTTTGTTTGTTTGTTTGTTTGCCGACGTGCCAGGCCGACGCGTCCC [forked DNA] has what Kd?
Outgoing: 0.114
